Molecular target: T1, purified recombinant human α5β1 integrin heterodimer, 6×His tagged (rh-α5β1); Acro Biosystems, cat. no. … (human, UniProt P08648 42-995; P05556 21-728)
T1 construct: bought recombinant heterodimer; also called rh-α5β1-6×His tagged protein; His-tagged-α5β1
T1 sequence (P08648 42-995 limits assumed, form in doubt, chain 1 of 2): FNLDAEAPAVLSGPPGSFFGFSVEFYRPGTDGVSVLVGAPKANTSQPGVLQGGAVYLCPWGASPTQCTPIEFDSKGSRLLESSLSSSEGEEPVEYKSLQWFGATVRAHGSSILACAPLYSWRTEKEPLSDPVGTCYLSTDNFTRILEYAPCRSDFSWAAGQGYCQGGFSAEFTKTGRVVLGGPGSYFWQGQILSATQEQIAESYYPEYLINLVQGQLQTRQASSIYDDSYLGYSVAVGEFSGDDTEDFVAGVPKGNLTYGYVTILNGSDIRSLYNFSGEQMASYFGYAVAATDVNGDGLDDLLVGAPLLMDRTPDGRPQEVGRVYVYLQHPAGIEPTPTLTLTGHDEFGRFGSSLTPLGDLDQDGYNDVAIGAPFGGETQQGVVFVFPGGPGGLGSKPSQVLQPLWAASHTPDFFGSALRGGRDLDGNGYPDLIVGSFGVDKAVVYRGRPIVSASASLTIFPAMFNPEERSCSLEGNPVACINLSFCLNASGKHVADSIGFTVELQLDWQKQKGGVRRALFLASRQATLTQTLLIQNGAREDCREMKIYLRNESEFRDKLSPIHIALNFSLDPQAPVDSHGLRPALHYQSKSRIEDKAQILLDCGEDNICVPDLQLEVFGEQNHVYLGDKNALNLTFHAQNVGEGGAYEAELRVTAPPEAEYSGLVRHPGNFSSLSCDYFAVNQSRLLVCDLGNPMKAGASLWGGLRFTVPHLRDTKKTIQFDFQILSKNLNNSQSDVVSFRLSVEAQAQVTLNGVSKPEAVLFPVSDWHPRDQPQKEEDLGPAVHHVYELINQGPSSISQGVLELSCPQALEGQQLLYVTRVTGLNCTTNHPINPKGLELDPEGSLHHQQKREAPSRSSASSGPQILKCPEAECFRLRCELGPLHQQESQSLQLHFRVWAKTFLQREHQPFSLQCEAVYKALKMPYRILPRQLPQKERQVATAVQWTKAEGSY
T1 sequence (P05556 21-728 limits assumed, form in doubt, chain 2 of 2): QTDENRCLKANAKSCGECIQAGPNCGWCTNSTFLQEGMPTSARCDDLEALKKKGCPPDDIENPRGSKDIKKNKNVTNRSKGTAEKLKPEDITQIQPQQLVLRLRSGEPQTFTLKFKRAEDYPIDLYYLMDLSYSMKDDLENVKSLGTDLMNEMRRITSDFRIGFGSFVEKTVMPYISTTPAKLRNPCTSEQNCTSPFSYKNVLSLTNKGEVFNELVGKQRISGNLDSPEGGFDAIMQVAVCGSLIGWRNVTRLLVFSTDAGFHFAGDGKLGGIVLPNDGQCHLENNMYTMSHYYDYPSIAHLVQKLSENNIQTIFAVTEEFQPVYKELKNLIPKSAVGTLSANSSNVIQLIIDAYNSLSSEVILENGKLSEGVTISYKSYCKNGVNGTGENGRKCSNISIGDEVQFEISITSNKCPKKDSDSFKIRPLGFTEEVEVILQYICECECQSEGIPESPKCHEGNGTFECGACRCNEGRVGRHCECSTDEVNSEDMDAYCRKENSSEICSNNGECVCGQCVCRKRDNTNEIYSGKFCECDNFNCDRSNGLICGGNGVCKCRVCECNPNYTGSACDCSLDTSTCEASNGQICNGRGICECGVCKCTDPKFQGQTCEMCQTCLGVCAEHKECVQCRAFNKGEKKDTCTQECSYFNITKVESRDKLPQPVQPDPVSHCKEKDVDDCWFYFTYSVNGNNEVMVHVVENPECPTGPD
Test: BLI (Octet), supernatant mAb on anti-mouse IgG Fc sensor, 20 nM rh-α5β1
endpoint.name: kon
# do not omit the unit; it follows the number

Recorded kon, per entry:
{"binder": "A2-7A05 (antibody, V domains shown, mouse hybridoma antibody; also called A2-7A05 (hybridoma)) VH: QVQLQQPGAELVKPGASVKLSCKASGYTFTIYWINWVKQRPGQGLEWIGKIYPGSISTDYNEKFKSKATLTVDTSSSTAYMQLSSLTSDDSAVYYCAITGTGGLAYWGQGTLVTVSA VL: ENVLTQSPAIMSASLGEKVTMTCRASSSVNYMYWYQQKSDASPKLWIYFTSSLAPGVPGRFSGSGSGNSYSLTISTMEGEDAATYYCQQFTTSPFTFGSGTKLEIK", "result": "222000 M⁻¹ s⁻¹"}
{"binder": "A-7D06 (antibody, V domains shown, mouse hybridoma antibody) VH: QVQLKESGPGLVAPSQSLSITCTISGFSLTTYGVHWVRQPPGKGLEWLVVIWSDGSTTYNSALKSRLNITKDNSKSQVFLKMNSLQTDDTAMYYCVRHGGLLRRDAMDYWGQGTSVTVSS VL: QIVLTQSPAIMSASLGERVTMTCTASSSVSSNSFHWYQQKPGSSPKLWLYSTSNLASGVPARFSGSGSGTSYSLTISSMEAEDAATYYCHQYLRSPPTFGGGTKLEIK", "result": "270000 M⁻¹ s⁻¹"}
{"binder": "C-14D12 (antibody, V domains shown, mouse hybridoma antibody; also called C-14D12 (hybridoma)) VH: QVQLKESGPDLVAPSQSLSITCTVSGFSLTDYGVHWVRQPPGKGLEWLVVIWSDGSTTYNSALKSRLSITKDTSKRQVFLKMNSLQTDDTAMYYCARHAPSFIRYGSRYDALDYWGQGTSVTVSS VL: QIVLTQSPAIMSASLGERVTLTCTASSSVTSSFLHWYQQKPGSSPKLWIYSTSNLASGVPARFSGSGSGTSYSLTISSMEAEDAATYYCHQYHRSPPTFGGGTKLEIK", "result": "263000 M⁻¹ s⁻¹"}
{"binder": "A-4G02 (antibody, V domains shown, mouse hybridoma antibody) VH: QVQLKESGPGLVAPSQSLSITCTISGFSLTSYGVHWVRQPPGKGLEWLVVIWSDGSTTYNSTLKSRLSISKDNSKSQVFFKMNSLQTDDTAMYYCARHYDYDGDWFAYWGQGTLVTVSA VL: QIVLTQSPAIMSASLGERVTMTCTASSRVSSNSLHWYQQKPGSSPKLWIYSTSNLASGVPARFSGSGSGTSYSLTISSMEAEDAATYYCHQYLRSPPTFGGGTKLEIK", "result": "321000 M⁻¹ s⁻¹"}
{"binder": "A2-5D10 (antibody, V domains shown, mouse hybridoma antibody) VH: QVQLKESGPGLVAPSQSLSITCTISGFSLTSYGVHWVRQPPGKGLEWLVVIWSDGSTTYNSTLKSRLSISKDNSKSQVFLKMNSLQTDDTAMYYCARHYDYDGDWFAYWGQGTLVTVSA VL: QILLTQSPAIMSASLGERVTMTCTASSSVSSRCLHWYQQKPGSSPKLWIYSTSNLASGVPARFRGSGSGTSYSLTISSMEAEDAATYYCHQYYRSPPTFGGGTKLEIK", "result": "693000 M⁻¹ s⁻¹"}

Continue with the binder presented below.
# input Record request: kon value, item A2-9A11 (antibody, V domains shown, mouse hybridoma antibody) VH: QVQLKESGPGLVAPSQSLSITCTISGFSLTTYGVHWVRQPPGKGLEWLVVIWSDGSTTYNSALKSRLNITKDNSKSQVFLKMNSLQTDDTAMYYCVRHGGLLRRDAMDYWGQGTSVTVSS VL: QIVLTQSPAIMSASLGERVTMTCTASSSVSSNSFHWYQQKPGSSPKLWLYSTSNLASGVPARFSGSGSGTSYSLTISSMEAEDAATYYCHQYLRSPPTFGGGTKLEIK
# output 277000 M⁻¹ s⁻¹

Values compiled from patent US20240279345A1.
